Target: human GPR119 (hGPR119) (Homo sapiens, UniProt Q8TDV5)
Sequence (Q8TDV5 1-335): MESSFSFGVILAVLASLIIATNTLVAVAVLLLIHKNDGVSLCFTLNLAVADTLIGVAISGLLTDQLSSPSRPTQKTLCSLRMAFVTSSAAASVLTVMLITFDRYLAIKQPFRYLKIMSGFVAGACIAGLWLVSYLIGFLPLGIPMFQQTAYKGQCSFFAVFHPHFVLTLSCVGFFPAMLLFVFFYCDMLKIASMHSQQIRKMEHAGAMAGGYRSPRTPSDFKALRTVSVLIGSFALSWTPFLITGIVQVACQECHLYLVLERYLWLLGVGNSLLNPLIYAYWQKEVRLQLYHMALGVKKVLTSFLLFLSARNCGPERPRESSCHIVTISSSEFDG
Experiment: cAMP accumulation assay in CHO-K1 cells stably expressing hGPR119
Settings: cAMP HTRF, 60 minutes
Form field: EC50 (one value per entry).

Known EC50 results, listed for orientation:
compound	target-entity	EC50
O=C(NCCS(=O)(=O)O)C1CN(C(=O)Cc2ccc(OCCCC3CCN(c4ncc(Cl)cn4)CC3)cc2F)C1	human GPR119 (hGPR119) (Homo sapiens, UniProt Q8TDV5)	100 to 1000 nM
O=C(Cc1c(F)cc(OCCCC2CCN(c3ncc(Cl)cn3)CC2)cc1F)N1CC(CNC[C@H](O)[C@@H](O)[C@H](O)[C@H](O)CO)C1	human GPR119 (hGPR119) (Homo sapiens, UniProt Q8TDV5)	≤ 100 nM
O=C(Cc1ccc(OCCCC2CCN(c3ncc(Cl)cn3)CC2)cc1F)N1CC(CN2C[C@@H](O)[C@@H](O)[C@@H](O)C2)C1	human GPR119 (hGPR119) (Homo sapiens, UniProt Q8TDV5)	≤ 100 nM
COc1cnc(N2CCC(CCCOc3ccc(CC(=O)N4CC(CNC[C@H](O)[C@@H](O)[C@H](O)[C@H](O)CO)C4)c(F)c3)CC2)nc1 (racemic)	human GPR119 (hGPR119) (Homo sapiens, UniProt Q8TDV5)	100 to 1000 nM
CCc1cnc(N2CCC(CCCOc3ccc(CC(=O)N4CC(CNC(CO)(CO)CO)C4)c(F)c3)CC2)nc1	human GPR119 (hGPR119) (Homo sapiens, UniProt Q8TDV5)	≤ 100 nM

Proceed to the following item.
For record O=C(NC(CO)CO)C1CN(C(=O)Cc2ccc(OCCCC3CCN(c4ncc(Cl)cn4)CC3)cc2F)C1 the listed EC50 is 100 to 1000 nM

====

Here the recorded pEC50 is given for each entry.
biological target: human GPR119 (hGPR119) (Homo sapiens, UniProt Q8TDV5); test: cAMP accumulation assay in CHO-K1 cells stably expressing hGPR119; conditions: cAMP HTRF, 60 minutes
pEC50: −log10 of the molar value.

Solved entries (count: 2):
compound	pEC50
O=C(Cc1ccc(OCCCC2CCN(c3ncc(Cl)cn3)CC2)cc1F)N1CC(CNC[C@H](O)[C@@H](O)[C@H](O)[C@H](O)CO)C1 [Compound A14]	6.00 to 7.00
CCCc1cnc(N2CCC(CCCOc3ccc(CC(=O)N4CC(CNC[C@H](O)[C@@H](O)[C@H](O)[C@H](O)CO)C4)c(F)c3)CC2)nc1 [Compound A44]	6.00 to 7.00

pEC50 on human GPR119 (hGPR119) (Homo sapiens, UniProt Q8TDV5) for O=C(Cc1ccc(OCCCC2CCN(c3ncc(Cl)cn3)CC2)cc1F)N1CC(CCNC(CO)(CO)CO)C1 [Compound A29] is 6.00 to 7.00
